# C6/36 Viability annotations
Tested on: C6/36 cells
Assay type: cell-based, Ae. albopictus
Conditions: 10 µM compound, 96 h, CellTiter-Glo; ± SEM, three independent trials

COMPOUND	REPORTED_PROPERTY	RESULT
COc1cc(/C=C/C(=O)CC(=O)/C=C/c2ccc(O)c(OC)c2)ccc1O [Curcumin]	C6/36 Viability	3 ± 0.7% of untreated control
C=CCNC1=C2C[C@@H](C)C[C@H](OC)[C@H](O)[C@@H](C)/C=C(\C)[C@H](OC(N)=O)[C@@H](OC)/C=C\C=C(/C)C(=O)NC(=CC1=O)C2=O [Compound 17-AAG, 17-AAG]	C6/36 Viability	79 ± 16.4% of untreated control
CCCC(CCC)C(=O)O [Sodium Valproate]	C6/36 Viability	111 ± 6.2% of untreated control
CO/C1=C\C(C)=C\[C@@H](C)[C@@H](O)[C@@H](C)C/C(C)=C/C=C/[C@H](OC)[C@@H]([C@@H](C)[C@@H](O)[C@H](C)[C@@]2(O)C[C@@H](O)[C@H](C)[C@@H](C(C)C)O2)OC1=O [Bafilomycin A1]	C6/36 Viability	36 ± 6.1% of untreated control
CN(C)CCCn1cc(C2=C(c3c[nH]c4ccccc34)C(=O)NC2=O)c2ccccc21 [Go6850]	C6/36 Viability	21 ± 0% of untreated control

C6/36 Viability for CCCC(=O)Nc1ncnc2c1ncn2[C@@H]1O[C@@H]2COP(=O)([O-])O[C@H]2[C@H]1OC(=O)CCC.[Na+] [Dibutyryl cAMP·Na] is 117 ± 10.7% of untreated control

C6/36 Viability for CC(=O)c1c(O)c(C)c(O)c(Cc2c(O)c3c(c(C(=O)/C=C/c4ccccc4)c2O)OC(C)(C)C=C3)c1O [Rottlerin] is 40 ± 8.4% of untreated control

C6/36 Viability for O=CC[C@@H](O)[C@H](O)[C@H](O)CO [2-Deoxyglucose] is 73 ± 1% of untreated control

====

# C6/36 Viability annotations
Tested on: C6/36 cells
Assay type: cell-based, Ae. albopictus
Details: 10 µM compound, 96 h, CellTiter-Glo; ± SEM, three independent trials

C6/36 Viability for [Cl-].[Li+] [Lithium Chloride] is 111 ± 10.7% of untreated control

C6/36 Viability for CCCCC[C@H](O)CC(=O)CCc1ccc(O)c(OC)c1 is 55 ± 11% of untreated control

C6/36 Viability for O=c1[nH]c2ccccc2n1C1CCN(CCCC(c2ccc(F)cc2)c2ccc(F)cc2)CC1 [Pimozide] is 49 ± 3.6% of untreated control

C6/36 Viability for COc1ccc(C[C@H]2NC[C@H](O)[C@H]2OC(C)=O)cc1 is 7 ± 0.9% of untreated control

C6/36 Viability for Cl.O=C(NCc1ccncc1)C12CC3C[C@H](C1)CC(c1ccc(Cl)cc1)(C3)C2 [ABC294640·HCl] is 32 ± 3.5% of untreated control

C6/36 Viability for CC(Oc1ccc(O)cc1)(P(=O)(O)O)P(=O)(O)O is 87 ± 4.6% of untreated control

====

Test system: C6/36 cells
Format: cell-based, Ae. albopictus
Details: 10 µM compound, 96 h, CellTiter-Glo; ± SEM, three independent trials
# C6/36 Viability annotations

C6/36 Viability for N#CC(C#N)=C(N)/C(C#N)=C/c1ccc(O)cc1 is 80 ± 5.8% of untreated control

C6/36 Viability for Cc1ccc(C(=O)Nc2ccc(S(=O)(=O)[O-])c3cc(S(=O)(=O)[O-])cc(S(=O)(=O)[O-])c23)cc1NC(=O)c1cccc(NC(=O)Nc2cccc(C(=O)Nc3cc(C(=O)Nc4ccc(S(=O)(=O)[O-])c5cc(S(=O)(=O)[O-])cc(S(=O)(=O)[O-])c45)ccc3C)c2)c1.[Na+].[Na+].[Na+].[Na+].[Na+].[Na+] is 86 ± 8.4% of untreated control

====

# ZIKV SPH Relative Titer in Vero Cells annotations
System: ZIKV SPH
Assay: Autophagy compound library screen, ZIKV SPH titer (TCID50) in Vero cells
Type: cell-based, Zika virus
Conditions: 10 µM compound, MOI 0.1, 40 h, TCID50; ± SEM, three independent trials

COMPOUND	TGT	REPORTED_PROPERTY	RESULT
CNCCCN1c2ccccc2CCc2ccc(Cl)cc21.Cl [Norclomipramine HCl]	ZIKV SPH	ZIKV SPH Relative Titer in Vero Cells	3.9 ± 0.5% of untreated control
CN1CCN(CCCN2c3ccccc3Sc3ccc(C(F)(F)F)cc32)CC1.Cl.Cl [Trifluoperazine·2HCl]	ZIKV SPH	ZIKV SPH Relative Titer in Vero Cells	2.8 ± 0.7% of untreated control
CC(Oc1ccc(O)cc1)(P(=O)(O)O)P(=O)(O)O	ZIKV SPH	ZIKV SPH Relative Titer in Vero Cells	40.7 ± 10.6% of untreated control
C=CCNc1ncnc2ccc(Br)cc12	ZIKV SPH	ZIKV SPH Relative Titer in Vero Cells	65.0 ± 5.6% of untreated control
O[C@@H](CS)[C@@H](O)CS	ZIKV SPH	ZIKV SPH Relative Titer in Vero Cells	60.2 ± 20.1% of untreated control

ZIKV SPH Relative Titer in Vero Cells for COc1ccc(C[C@H]2NC[C@H](O)[C@H]2OC(C)=O)cc1 is 0.0 ± 0% of untreated control

ZIKV SPH Relative Titer in Vero Cells for CNc1ccc2oc(C[C@H]3O[C@@]4(CC[C@H]3C)O[C@H]([C@H](C)C(=O)c3ccc[nH]3)[C@H](C)C[C@H]4C)nc2c1C(=O)O is 0.5 ± 0.5% of untreated control

ZIKV SPH Relative Titer in Vero Cells for NC(=O)c1ncn([C@@H]2O[C@H](CO)[C@@H](O)[C@H]2O)c1N is 112.3 ± 32.3% of untreated control

ZIKV SPH Relative Titer in Vero Cells for CCCC(=O)Nc1ncnc2c1ncn2[C@@H]1O[C@@H]2COP(=O)([O-])O[C@H]2[C@H]1OC(=O)CCC.[Na+] is 60.6 ± 36.7% of untreated control

ZIKV SPH Relative Titer in Vero Cells for Cc1cccc(Nc2nc(-c3ccncc3)cs2)c1 is 45.0 ± 21.4% of untreated control

ZIKV SPH Relative Titer in Vero Cells for C=CC(C)(C)c1cc(/C=C/C(=O)c2ccc(O)cc2)c(OC)cc1O is 7.2 ± 2.9% of untreated control

ZIKV SPH Relative Titer in Vero Cells for CN(C)CCCn1cc(C2=C(c3c[nH]c4ccccc34)C(=O)NC2=O)c2ccccc21 is 1.3 ± 0.9% of untreated control

ZIKV SPH Relative Titer in Vero Cells for O=S(=O)(F)Cc1ccccc1 is 89.0 ± 7% of untreated control

ZIKV SPH Relative Titer in Vero Cells for NS(=O)(=O)C#Cc1ccccc1 is 38.5 ± 12.4% of untreated control

ZIKV SPH Relative Titer in Vero Cells for N#CC(C#N)=C(N)/C(C#N)=C/c1ccc(O)cc1 is 77.7 ± 38.2% of untreated control

ZIKV SPH Relative Titer in Vero Cells for CCCCCCCCCCCCCCC[C@@H](O)[C@H](CO)NC(C)=O [C2-dihydroceramide] is 36.5 ± 3% of untreated control

====

# Vero Viability annotations
Tested on: Vero cells
Experiment: Cell viability (CellTiter-Glo) of Vero cells
Format: cell-based
Conditions: 10 µM
Structures can show the parent of a compound that is named as a salt.

The examples below pair each entry with its known result.
COMPOUND	Vero Viability
COC(=O)Nc1nc2ccc(C(=O)c3cccs3)cc2[nH]1 [Nocodazole]	56.0 ± 9.6% of untreated control
N[C@H]1C(O)O[C@H](CO)[C@@H](O)[C@@H]1O (some centres unmarked) [Glucosamine HCl]	99.3 ± 1.9% of untreated control
COC1=C2C[C@@H](C)C[C@H](OC)[C@H](O)[C@@H](C)/C=C(\C)[C@H](OC(N)=O)[C@@H](OC)/C=C\C=C(/C)C(=O)NC(=CC1=O)C2=O [Geldanamycin]	61.3 ± 5.7% of untreated control

Measured Vero Viability for this entry Cl.O=C(NCc1ccncc1)C12CC3C[C@H](C1)CC(c1ccc(Cl)cc1)(C3)C2 [ABC294640·HCl] on Vero cells: 87.7 ± 6.8% of untreated control

Measured Vero Viability for this entry CO[C@H]1C[C@@H]2CC[C@@H](C)[C@@](O)(O2)C(=O)C(=O)N2CCCC[C@H]2C(=O)O[C@H]([C@H](C)C[C@@H]2CC[C@@H](O)[C@H](OC)C2)CC(=O)[C@H](C)/C=C(\C)[C@@H](O)[C@@H](OC)C(=O)[C@H](C)C[C@H](C)/C=C/C=C/C=C/1C [Rapamycin] on Vero cells: 66.0 ± 2.6% of untreated control

Measured Vero Viability for this entry CN1CCN(CCCN2c3ccccc3Sc3ccc(C(F)(F)F)cc32)CC1.Cl.Cl [Trifluoperazine·2HCl] on Vero cells: 51.0 ± 22.1% of untreated control

Measured Vero Viability for this entry COc1cc([C@@H]2c3cc4c(cc3[C@@H](O[C@@H]3O[C@@H]5CO[C@@H](C)O[C@H]5[C@H](O)[C@H]3O)[C@H]3COC(=O)[C@H]23)OCO4)cc(OC)c1O [Etoposide] on Vero cells: 84.0 ± 3.6% of untreated control

Measured Vero Viability for this entry O=c1[nH]c2ccccc2n1C1CCN(CCCC(c2ccc(F)cc2)c2ccc(F)cc2)CC1 [Pimozide] on Vero cells: 90.0 ± 5.7% of untreated control
